Cited source: patent US20080167284A1

Molecular target: Cannabinoid Receptor 1 (CB1R), human recombinant CB1 (Homo sapiens)
Sequence (P21554 whole entry): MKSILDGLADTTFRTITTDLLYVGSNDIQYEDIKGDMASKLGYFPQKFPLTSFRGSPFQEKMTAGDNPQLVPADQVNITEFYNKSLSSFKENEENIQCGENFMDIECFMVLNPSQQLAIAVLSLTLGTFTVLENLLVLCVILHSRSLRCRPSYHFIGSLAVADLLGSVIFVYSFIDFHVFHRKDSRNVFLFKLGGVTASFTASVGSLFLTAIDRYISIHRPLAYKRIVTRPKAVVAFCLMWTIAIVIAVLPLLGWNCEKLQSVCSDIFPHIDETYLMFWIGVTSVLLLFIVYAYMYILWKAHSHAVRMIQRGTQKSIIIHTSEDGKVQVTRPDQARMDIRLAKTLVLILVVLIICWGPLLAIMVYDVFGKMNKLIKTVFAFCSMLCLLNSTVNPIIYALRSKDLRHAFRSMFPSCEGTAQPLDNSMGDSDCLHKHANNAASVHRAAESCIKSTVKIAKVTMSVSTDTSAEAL
Assay: CB1R radioligand experiment on membranes from HEK293 cells over-expressing human recombinant CB1
Conditions: human recombinant CB1, radioligand [3H]CP-55,490, n=3
Protocol: Visnadin was evaluated for its ability to activate Cannabinoid Receptor 1 (CB1R) and Cannabinoid Receptor 2 (CB2R). CB1R experiments were performed using membranes from HEK293 cells over-expressing human recombinant CB1, as described by the manufacturer (Perkin-Elmer) and using [3H]CP-55,490 as the radioligand. Data of active compounds are expressed in Ki (mM) and are means±SEM of n=3 determinations. The values that are stated for each of the compounds is an EC50 value. […]
metric: EC50

Enter recorded EC50 with Cannabinoid Receptor 1 (CB1R), human recombinant CB1 (Homo sapiens) for CCC(C)C(=O)O[C@@H]1[C@H](OC(C)=O)c2c(ccc3ccc(=O)oc23)OC1(C)C (stereo partly shown) [visnadin] here.
> 25 µM

----------
Target: Cannabinoid Receptor 2 (CB2R), human recombinant CB2 (Homo sapiens, UniProt P34972)
Sequence (P34972 whole entry): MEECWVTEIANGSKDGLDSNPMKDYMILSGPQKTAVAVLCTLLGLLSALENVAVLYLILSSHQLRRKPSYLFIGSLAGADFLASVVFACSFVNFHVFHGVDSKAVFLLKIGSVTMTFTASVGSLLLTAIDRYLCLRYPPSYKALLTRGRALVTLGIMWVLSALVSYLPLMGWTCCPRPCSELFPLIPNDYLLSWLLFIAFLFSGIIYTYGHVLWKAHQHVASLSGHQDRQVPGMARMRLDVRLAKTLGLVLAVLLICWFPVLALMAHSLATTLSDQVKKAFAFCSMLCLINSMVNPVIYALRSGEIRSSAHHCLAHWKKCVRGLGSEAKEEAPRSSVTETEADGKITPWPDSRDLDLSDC
Experiment: CB2R radioligand experiment on membranes from HEK293 cells over-expressing human recombinant CB2
Settings: human recombinant CB2, radioligand [3H]CP-55,495, n=3
metric: EC50

Enter recorded EC50 with Cannabinoid Receptor 2 (CB2R), human recombinant CB2 (Homo sapiens, UniProt P34972) for CCC(C)C(=O)O[C@@H]1[C@H](OC(C)=O)c2c(ccc3ccc(=O)oc23)OC1(C)C (stereo partly shown) here.
14.1 µM
